Source of measurements: ChEMBL document CHEMBL5724914

procedure_summary: The drug is tested on Z-009 corresponding to pig gut metagenome with ENA study accession number: PRJEB37062 and ENA sample accession number: ERS12561809 for biotransformation under anaerobic condition. The drug concentrations were measured over 9 timepoints collected between 0 and 24 hours of incubation by liquid-chromatography-coupled mass spectrometry (LC–MS); further: call rule not given here
setup_conditions: 2 µM
readout_kind: Bacterial Biotransformation

compound="OCCOCCN1CCN(C2=Nc3ccccc3Sc3ccccc32)CC1 [QUETIAPINE]" readout_kind="Bacterial Biotransformation" result="Compound NOT metabolized"
compound="CNC(=C[N+](=O)[O-])NCCSCc1csc(CN(C)C)n1 [NIZATIDINE]" readout_kind="Bacterial Biotransformation" result="Compound NOT metabolized"
compound="CCN(CC)CC#CCOC(=O)C(O)(c1ccccc1)C1CCCCC1.Cl (stereo not given) [OXYBUTYNIN CHLORIDE]" readout_kind="Bacterial Biotransformation" result="Compound metabolized"
compound="Br.CN(C)CCCC1(c2ccc(F)cc2)OCc2cc(C#N)ccc21 (stereo not given) [CITALOPRAM HYDROBROMIDE]" readout_kind="Bacterial Biotransformation" result="Compound metabolized"
compound="NC(=O)N1c2ccccc2CC(=O)c2ccccc21 [OXCARBAZEPINE]" readout_kind="Bacterial Biotransformation" result="Compound metabolized"
compound="Cc1cn([C@H]2C[C@H](N=[N+]=[N-])[C@@H](CO)O2)c(=O)[nH]c1=O [ZIDOVUDINE]" readout_kind="Bacterial Biotransformation" result="Compound NOT metabolized"
compound="O=C1[C@H](CC[C@H](O)c2ccc(F)cc2)[C@@H](c2ccc(O)cc2)N1c1ccc(F)cc1 [EZETIMIBE]" readout_kind="Bacterial Biotransformation" result="Compound NOT metabolized"
compound="COc1ccc2[nH]c([S+]([O-])Cc3ncc(C)c(OC)c3C)nc2n1 (stereo not given) [TENATOPRAZOLE]" readout_kind="Bacterial Biotransformation" result="Compound metabolized"
compound="Cc1nc2n(c(=O)c1CCN1CCC(c3noc4cc(F)ccc34)CC1)CCCC2 [RISPERIDONE]" readout_kind="Bacterial Biotransformation" result="Compound metabolized"
compound="Nc1nc2ccc(OC(F)(F)F)cc2s1 [RILUZOLE]" readout_kind="Bacterial Biotransformation" result="Compound metabolized"
compound="COc1cc2nc(N(C)CCCNC(=O)C3CCCO3)nc(N)c2cc1OC (stereo not given) [ALFUZOSIN]" readout_kind="Bacterial Biotransformation" result="Compound metabolized"
compound="OC(CCN1CCCCC1)(c1ccccc1)C1CCCCC1 (stereo not given) [TRIHEXYPHENIDYL]" readout_kind="Bacterial Biotransformation" result="Compound metabolized"
compound="CCN(CC)CCNC(=O)c1cc(Cl)c(N)cc1OC [METOCLOPRAMIDE]" readout_kind="Bacterial Biotransformation" result="Compound NOT metabolized"
compound="CCN(CC)CCOCCOC(=O)C1(c2ccccc2)CCCC1.O=C(O)CC(O)(CC(=O)O)C(=O)O [CARBETAPENTANE CITRATE]" readout_kind="Bacterial Biotransformation" result="Compound metabolized"
compound="COc1ccc2c(c1OC)C(=O)O[C@@H]2[C@H]1c2c(cc3c(c2OC)OCO3)CCN1C [NOSCAPINE]" readout_kind="Bacterial Biotransformation" result="Compound metabolized"
compound="COc1ccccc1OCC(O)CN1CCN(CC(=O)Nc2c(C)cccc2C)CC1 (stereo not given) [RANOLAZINE]" readout_kind="Bacterial Biotransformation" result="Compound NOT metabolized"
compound="O=c1[nH]c2ccccc2n1C1CCN(CCCC(c2ccc(F)cc2)c2ccc(F)cc2)CC1 [PIMOZIDE]" readout_kind="Bacterial Biotransformation" result="Compound metabolized"
compound="Cc1nc2n(c(=O)c1CCN1CCC(c3noc4cc(F)ccc34)CC1)CCCC2O (stereo not given) [PALIPERIDONE]" readout_kind="Bacterial Biotransformation" result="Compound metabolized"
compound="CC(C)(C#N)c1cc(Cn2cncn2)cc(C(C)(C)C#N)c1 [ANASTROZOLE]" readout_kind="Bacterial Biotransformation" result="Compound metabolized"
compound="CNCCC(Oc1ccc(C(F)(F)F)cc1)c1ccccc1 (stereo not given) [FLUOXETINE]" readout_kind="Bacterial Biotransformation" result="Compound NOT metabolized"
compound="CCN(CC)C(=O)/C(C#N)=C/c1cc(O)c(O)c([N+](=O)[O-])c1 [ENTACAPONE]" readout_kind="Bacterial Biotransformation" result="Compound metabolized"
compound="CC(C)NCC(O)COc1ccc(COCCOC(C)C)cc1.CC(C)NCC(O)COc1ccc(COCCOC(C)C)cc1.O=C(O)/C=C/C(=O)O (stereo not given) [BISOPROLOL FUMARATE]" readout_kind="Bacterial Biotransformation" result="Compound metabolized"
compound="CN(C)C(=O)C(CCN1CCC(O)(c2ccc(Cl)cc2)CC1)(c1ccccc1)c1ccccc1 [LOPERAMIDE]" readout_kind="Bacterial Biotransformation" result="Compound metabolized"
compound="CS(=O)(=O)O.OC(CCN1CCCCC1)(c1ccccc1)c1ccccc1 [PRIDINOL METHANESULFONATE]" readout_kind="Bacterial Biotransformation" result="Compound NOT metabolized"
compound="NC12CC3CC(CC(C3)C1)C2 [AMANTADINE]" readout_kind="Bacterial Biotransformation" result="Compound NOT metabolized"
